- protocol.notes: Cmax in male Sprague-Dawley rat at 5 mg/kg, ip measured up to 24 hrs by LC-MS analysis
- Type: ADME, organism-based
- test.settings: in vivo
reported.metric: Cmax (ng/mL)
// note: answer is a bare numeric in ng/mL

Q) Which Cmax reading was recorded for the compound O=C1CCC(N2Cc3c(NC(=O)CCCCCC(=O)N4CCC(C(=O)Nc5ncc(-c6ccccc6)s5)CC4)cccc3C2=O)C(=O)N1 (stereo unspecified) ?
A) 1970

* * *

- Tested on: MDA-MB-231
- protocol.notes: Anti-proliferative activity against human MDA-MB-231 cells measured after 96 hrs by CCK8 assay
- test.settings: MDA-MB-231, 96 h
reported.metric: pIC50
# pIC50 = -log10(concentration in molar units)

- compound: "O=C1CCC(N2Cc3c(NC(=O)CCCCCC(=O)N4CCC(C(=O)Nc5ncc(-c6ccccc6)s5)CC4)cccc3C2=O)C(=O)N1 (configuration not stated)"
  reported.metric: "pIC50"
  readout.number: 5.69
- compound: "O=C1CCC(N2Cc3c(NC(=O)CCCCCN4CCC(C(=O)Nc5ncc(-c6ccccc6)s5)CC4)cccc3C2=O)C(=O)N1 (configuration not stated)"
  reported.metric: "pIC50"
  readout.number: 4.91
- compound: "O=C1CCC(N2Cc3c(NC(=O)CCCCCCC(=O)N4CCC(C(=O)Nc5ncc(-c6ccccc6)s5)CC4)cccc3C2=O)C(=O)N1 (configuration not stated)"
  reported.metric: "pIC50"
  readout.number: 5.24

Read the next record carefully.
Q) Which pIC50 reading was recorded for the compound O=C(CC(=O)N1CCC(C(=O)Nc2ncc(-c3ccccc3)s2)CC1)NCCCCCCC(=O)Nc1cccc2c1CN(C1CCC(=O)NC1=O)C2=O (configuration not stated) ?
A) 4.75

* * *

- protocol.notes: Clearance in male Sprague-Dawley rat at 5 mg/kg, ip measured up to 24 hrs by LC-MS analysis
- Assay type: ADME, organism-based
- test.settings: in vivo
reported.metric: CL/F (mL/min/kg)
// note: answer is a bare numeric in mL/min/kg

Q) Which CL/F reading was recorded for the compound O=C1CCC(N2Cc3c(NC(=O)CCCCCC(=O)N4CCC(C(=O)Nc5ncc(-c6ccccc6)s5)CC4)cccc3C2=O)C(=O)N1 (stereo unspecified) ?
A) 8.75

* * *

- protocol.notes: Oral bioavailability in male Sprague-Dawley rat at 20 mg/kg measured up to 24 hrs by LC-MS analysis
- Assay type: ADME, organism-based
- test.settings: in vivo
reported.metric: bioavailability (%)
// note: answer is a bare numeric in %

Q) Which bioavailability reading was recorded for the compound O=C1CCC(N2Cc3c(NC(=O)CCCCCC(=O)N4CCC(C(=O)Nc5ncc(-c6ccccc6)s5)CC4)cccc3C2=O)C(=O)N1 (stereo unspecified) ?
A) 2.1

* * *

- protocol.notes: Tmax in male Sprague-Dawley rat at 20 mg/kg, po measured up to 24 hrs by LC-MS analysis
- Assay type: ADME, organism-based
- test.settings: in vivo
reported.metric: Tmax (h)
// note: answer is a bare numeric in h

Q) Which Tmax reading was recorded for the compound O=C1CCC(N2Cc3c(NC(=O)CCCCCC(=O)N4CCC(C(=O)Nc5ncc(-c6ccccc6)s5)CC4)cccc3C2=O)C(=O)N1 (stereo unspecified) ?
A) 1.4

* * *

- subject.of.test: MAP kinase-interacting serine/threonine-protein kinase 1 (Homo sapiens)
- Sequence (Q9BUB5 whole entry): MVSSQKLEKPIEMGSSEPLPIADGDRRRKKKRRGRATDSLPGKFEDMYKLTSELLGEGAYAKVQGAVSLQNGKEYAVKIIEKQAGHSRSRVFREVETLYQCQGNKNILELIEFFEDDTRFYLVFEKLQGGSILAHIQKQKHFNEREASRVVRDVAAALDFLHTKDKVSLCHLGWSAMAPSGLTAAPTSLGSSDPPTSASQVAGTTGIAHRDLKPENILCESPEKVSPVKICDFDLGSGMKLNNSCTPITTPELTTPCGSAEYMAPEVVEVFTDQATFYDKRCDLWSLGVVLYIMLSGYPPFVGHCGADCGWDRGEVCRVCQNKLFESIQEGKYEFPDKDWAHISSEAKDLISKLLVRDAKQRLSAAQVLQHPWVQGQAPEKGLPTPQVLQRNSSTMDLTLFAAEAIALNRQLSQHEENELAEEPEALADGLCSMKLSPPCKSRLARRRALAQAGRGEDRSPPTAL
- protocol.notes: Inhibition of recombinant MNK1 (unknown origin) using TATKSGSTTKNR peptide as substrate preincubated for 5 mins followed by ATP addition and measured after 40 mins by ADP-Glo kinase assay
We begin with a simple list: items and their reported IC50.
State the value with its unit after it.

- compound: "CN1CCC(C(=O)Nc2ncc(-c3ccccc3)s2)CC1"
  result: "0.387 µM"

Read the next record carefully.
Q) Which IC50 reading was recorded for the compound O=C1CCC(N2C(=O)c3cc(F)c(N4CCN(C(=O)CCCC(=O)N5CCC(C(=O)Nc6ncc(-c7ccccc7)s6)CC5)CC4)cc3C2=O)C(=O)N1 (configuration not stated) ?
A) 0.64 µM

* * *

- protocol.notes: Tmax in male Sprague-Dawley rat at 5 mg/kg, ip measured up to 24 hrs by LC-MS analysis
- Format: ADME, organism-based
- test.settings: in vivo
reported.metric: Tmax (min)
// note: answer is a bare numeric in min

Q) Which Tmax reading was recorded for the compound O=C1CCC(N2Cc3c(NC(=O)CCCCCC(=O)N4CCC(C(=O)Nc5ncc(-c6ccccc6)s5)CC4)cccc3C2=O)C(=O)N1 (stereo unspecified) ?
A) 30

* * *

- protocol.notes: AUC (0 to t) in male Sprague-Dawley rat at 20 mg/kg, po measured up to 24 hrs by LC-MS analysis
- Type: ADME, organism-based
- test.settings: in vivo
reported.metric: AUC(0-t) at 24 h (ng·h/mL)
// note: answer is a bare numeric in ng·h/mL

Q) Which AUC(0-t) at 24 h reading was recorded for the compound O=C1CCC(N2Cc3c(NC(=O)CCCCCC(=O)N4CCC(C(=O)Nc5ncc(-c6ccccc6)s5)CC4)cccc3C2=O)C(=O)N1 (stereo unspecified) ?
A) 2950

* * *

- protocol.notes: AUC (0 to t) in male Sprague-Dawley rat at 1 mg/kg, iv measured up to 24 hrs by LC-MS analysis
- Assay type: ADME, organism-based
- test.settings: in vivo
reported.metric: AUC(0-t) at 24 h (ng·h/mL)
// note: answer is a bare numeric in ng·h/mL

Q) Which AUC(0-t) at 24 h reading was recorded for the compound O=C1CCC(N2Cc3c(NC(=O)CCCCCC(=O)N4CCC(C(=O)Nc5ncc(-c6ccccc6)s5)CC4)cccc3C2=O)C(=O)N1 (stereo unspecified) ?
A) 7020

* * *

- protocol.notes: Half life in male Sprague-Dawley rat at 5 mg/kg, ip measured up to 24 hrs by LC-MS analysis
- Assay type: ADME, organism-based
- test.settings: in vivo
reported.metric: half-life (h)
// note: answer is a bare numeric in h

Q) Which half-life reading was recorded for the molecule O=C1CCC(N2Cc3c(NC(=O)CCCCCC(=O)N4CCC(C(=O)Nc5ncc(-c6ccccc6)s5)CC4)cccc3C2=O)C(=O)N1 (stereo unspecified) ?
A) 5.2

* * *

- protocol.notes: Half life in male Sprague-Dawley rat at 1 mg/kg, iv measured up to 24 hrs by LC-MS analysis
- Assay type: ADME, organism-based
- test.settings: in vivo
reported.metric: half-life (h)
// note: answer is a bare numeric in h

Q) Which half-life reading was recorded for the compound O=C1CCC(N2Cc3c(NC(=O)CCCCCC(=O)N4CCC(C(=O)Nc5ncc(-c6ccccc6)s5)CC4)cccc3C2=O)C(=O)N1 (stereo unspecified) ?
A) 4.3

* * *

We begin with a simple list: items and their reported pIC50.
- Test system: MDA-MB-231
- protocol.notes: Anti-proliferative activity against human MDA-MB-231 cells measured after 96 hrs by CCK8 assay
- test.settings: MDA-MB-231, 96 h
pIC50: −log10 of the molar value.

// below: answered compounds
- compound: "O=C1CCC(N2C(=O)c3cc(F)c(N4CCN(C(=O)CCCCCCC(=O)N5CCC(C(=O)Nc6ncc(-c7ccccc7)s6)CC5)CC4)cc3C2=O)C(=O)N1 (stereo not drawn)"
  subject.of.test: "MDA-MB-231"
  pIC50: "< 4.70"
- compound: "CN1CCC(C(=O)Nc2ncc(-c3ccccc3)s2)CC1"
  subject.of.test: "MDA-MB-231"
  pIC50: "< 4.70"

Read the next record carefully.
Q) Which pIC50 reading was recorded for the compound O=C1CCC(N2Cc3c(NC(=O)CCCCOc4ccc(CC(=O)N5CCC(C(=O)Nc6ncc(-c7ccccc7)s6)CC5)cc4)cccc3C2=O)C(=O)N1 (stereo not drawn) ?
A) < 4.70

The values you see were collected from ChEMBL document CHEMBL6177991.
